Attribution: PubChem BioAssay (Tox21)

# assay-details: qHTS assay to identify small molecule antagonists of the constitutive androstane receptor (CAR) signaling pathway - cell viability counter screen (AID 1224837); note: nearly all actives have a fitted effect of over 45% in size
# measurement-setup: HepG2-CYP2B6-hCAR viability, CellTiter-Fluor, 23 h, co-treated with 50 nM CITCO; series mostly up to 92.4 µM
Inconclusive results are not listed. The source made the active and inactive calls. Calls come from the whole dose curve; as a rule, active = well fitted cell-killing curve with a large enough effect in the repeat runs; inconclusive = weak or mixed curves, or effect the other way; inactive = flat fitted curve, though single readings scatter.
Returns: one label drawn from active, inactive

Query: Record request — test call for `CC(=O)SC[C@@H](Cc1ccccc1)C(=O)NCC(=O)OCc1ccccc1`
Result: inactive

Query: How did this test come out for `Oc1cc2ccccc2c2ccccc12` ?
Result: active

Query: Name the outcome recorded for `[Cl][Bi]([Cl])([c]1ccccc1)([c]1ccccc1)[c]1ccccc1` in the assay.
Result: active

Query: I'd appreciate the recorded outcome for `CCN(Cc1cccnc1)C(=O)c1cccc(Cl)c1[C@]1(C)C(=O)N(Cc2ccc(OC)cc2OC)c2ccc(Cl)cc21` from this test.
Result: inactive

Query: Just curious, what result did `Cc1cc(N)c(S(=O)(=O)O)cc1Cl` get here?
Result: inactive

Query: Hey, what did the test say about `C[n+]1cc2c3c(ccc2c2ccc4cc5c(cc4c21)OCO5)OCO3` ?
Result: active

Query: What outcome does the record of this test show for `N/C(=N\N=C\c1ccc(Cl)cc1)N/N=C/c1ccc(Cl)cc1` ?
Result: inactive

Query: # outcome recorded in this test, key = `CSc1cnc(C)cn1`
Result: inactive

Query: Per the records of this test, what outcome belongs to `O=C(NO)C1(NS(=O)(=O)c2ccc(Oc3ccc(F)cc3)cc2)CCOCC1` ?
Result: inactive

Query: Recorded test call requested for Cc1cccc(CN2CCN(C(c3ccccc3)c3ccc(Cl)cc3)CC2)c1 (stereo not drawn)
Result: inactive

Query: What was the test verdict on `OCCCCCCCCCCCCBr` ?
Result: inactive

Query: How did this test come out for CCCC(C)c1ccccc1O (stereo not drawn) ?
Result: inactive

Query: Called result for `CC(C)(C)C(=O)OCOC(=O)[C@@H]1N2C(=O)[C@@H](NC(=O)[C@H](N)c3ccccc3)[C@H]2SC1(C)C`
Result: inactive

Query: Test call for this compound, please: `CN(C/C=C/C#CC(C)(C)C)Cc1cccc2ccccc12`
Result: inactive

Query: So what was the verdict on `O=C(NOCC1CC1)c1ccc(F)c(F)c1Nc1ccc(I)cc1Cl` in this test?
Result: inactive

Query: Per the assay record, what outcome was assigned to `CCc1cc(SCc2sc(-c3ccc(C(F)(F)F)cc3)nc2CN2CCN(c3ccc(OC)cc3)CC2)ccc1OCC(=O)O` ?
Result: inactive

Query: Each compound tested received a call. Report the one for `O=c1c(-c2ccccc2)c1-c1ccccc1` .
Result: inactive

Query: How did this test come out for `CCCCN(CCCC)C(=O)N(CCCC)CCCC` ?
Result: inactive

Query: Recorded test call requested for `O=c1cccccc1O`
Result: inactive

Query: Which result was noted for this compound in the test: `NNC(=O)c1cccc(C(=O)NN)c1`
Result: inactive

Query: For this compound, state the assay outcome: COC(=O)C1=C(C)NC(C)=C(C(=O)OCCc2ccc(N3CCN(C(c4ccccc4)c4ccccc4)CC3)cc2)C1c1cccc([N+](=O)[O-])c1 (stereo not drawn)
Result: inactive

Query: Tell me the recorded outcome of this test for CCCCCCCCCCCCCC[P+](CCCC)(CCCC)CCCC (tested in a mixture with another compound) .
Result: active

Query: Hi, do you know how `O=[N+]([O-])c1cc([N+](=O)[O-])c2ccc(S(=O)(=O)O)cc2c1O` came out in this test?
Result: active
